# TGT: hERG (Homo sapiens)
# Construct: purchased Invitrogen PV5365
# Sequence (Q12809 whole entry): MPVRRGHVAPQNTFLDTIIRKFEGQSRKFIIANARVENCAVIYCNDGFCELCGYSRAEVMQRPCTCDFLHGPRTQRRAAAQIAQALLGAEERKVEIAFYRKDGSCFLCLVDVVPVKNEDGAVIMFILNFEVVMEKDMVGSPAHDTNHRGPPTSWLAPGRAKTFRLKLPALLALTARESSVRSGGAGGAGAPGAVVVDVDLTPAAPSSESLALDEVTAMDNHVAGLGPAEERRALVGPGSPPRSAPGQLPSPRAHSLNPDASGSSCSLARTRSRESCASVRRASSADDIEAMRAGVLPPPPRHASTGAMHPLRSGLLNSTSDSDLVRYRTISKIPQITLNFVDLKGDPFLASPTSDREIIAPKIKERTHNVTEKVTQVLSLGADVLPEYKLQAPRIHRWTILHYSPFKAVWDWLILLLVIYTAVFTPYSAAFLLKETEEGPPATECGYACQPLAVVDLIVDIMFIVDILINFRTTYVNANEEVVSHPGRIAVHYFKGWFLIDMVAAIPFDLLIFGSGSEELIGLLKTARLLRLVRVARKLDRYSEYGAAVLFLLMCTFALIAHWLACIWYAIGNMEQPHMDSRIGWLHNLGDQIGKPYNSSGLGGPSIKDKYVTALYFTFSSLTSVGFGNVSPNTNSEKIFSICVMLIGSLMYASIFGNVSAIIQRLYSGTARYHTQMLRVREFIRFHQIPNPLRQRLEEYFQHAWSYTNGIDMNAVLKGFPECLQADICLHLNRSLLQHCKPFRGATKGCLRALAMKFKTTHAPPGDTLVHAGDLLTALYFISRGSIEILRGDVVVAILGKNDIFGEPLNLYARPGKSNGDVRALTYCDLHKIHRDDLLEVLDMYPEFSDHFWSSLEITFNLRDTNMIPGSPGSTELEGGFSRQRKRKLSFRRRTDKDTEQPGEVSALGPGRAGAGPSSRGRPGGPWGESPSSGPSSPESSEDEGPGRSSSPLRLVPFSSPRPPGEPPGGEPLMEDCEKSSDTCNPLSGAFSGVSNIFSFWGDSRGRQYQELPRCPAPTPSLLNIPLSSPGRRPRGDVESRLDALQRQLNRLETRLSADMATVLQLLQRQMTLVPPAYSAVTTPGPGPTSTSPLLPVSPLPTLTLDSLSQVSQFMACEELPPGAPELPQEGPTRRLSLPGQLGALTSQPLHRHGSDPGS
# MEASUREMENT NOTES: hERG fluorescence polarization assay (Predictor hERG kit)
# Type: binding
# RECORDED CONDITIONS: concentration displacing 50% of Predictor hERG tracer red; read-out: hERG assay result
READOUT: IC50 (nM)
The reply should contain only the number, in nM.

Find the measured IC50 of CC(C)NCCCn1c(Sc2cc3c(cc2I)OCO3)nc2c(N)ncnc21 [PU-H71, reference compound] and report it.
1000
